- Test system: mesenchymal-like (M and MSL) TNBC cell lines
- MEASUREMENT NOTES: Cell proliferation/viability assay (alamarBlue) and IC50 determination
- Assay type: cell-based, human
- EXPERIMENTAL SETUP: Homo sapiens; mesenchymal-like subtypes (M and MSL), 72 hours
OBSERVATION TYPE: pIC50
Scale: pIC50 equals -log10([C]), with [C] in mol/L.

Query: Given the entry Cc1nc(Nc2ncc(C(=O)Nc3c(C)cccc3Cl)s2)cc(N2CCN(CCO)CC2)n1 [dasatinib] , report its measured pIC50.
Response: 4.66

====

- Tested on: TNBC cell lines
- MEASUREMENT NOTES: Cell proliferation/viability assay (alamarBlue), panel of TNBC cell lines (Example 1)
- Format: cell-based, human
- EXPERIMENTAL SETUP: Homo sapiens; majority of TNBC cell lines; read-out: IC50 not achieved using the highest dose
OBSERVATION TYPE: IC50

Query: So what IC50 did CC(O)(CS(=O)(=O)c1ccc(F)cc1)C(=O)Nc1ccc(C#N)c(C(F)(F)F)c1 (stereo not shown) [bicalutamide] get with TNBC cell lines?
Response: > 500 µM
